target: HLA-A*2401 (human); assay: inhibition of 125I-labelled standard peptide binding to purified HLA
quantity: relative binding ratio (IC50 standard peptide / IC50 test peptide)

According to the records, this binder IFATCLGL [MAGE3 177-184 (position 177, 8 amino acids)] displays relative binding ratio (IC50 standard peptide / IC50 test peptide) of 0.012

According to the records, this binder IWEELSVL [MAGE3 221-228 (position 221, 8 amino acids)] displays relative binding ratio (IC50 standard peptide / IC50 test peptide) of -0.0004

According to the records, this binder SYDGLLGDNQI [MAGE3 185-195 (position 185, 11 amino acids)] displays relative binding ratio (IC50 standard peptide / IC50 test peptide) of 0.0026

According to the records, this binder NYPLWSQSY [MAGE3 76-84 (position 76, 9 amino acids)] displays relative binding ratio (IC50 standard peptide / IC50 test peptide) of 0.027

According to the records, this binder VFEGREDSIL [MAGE3 230-239 (position 230, 10 amino acids)] displays relative binding ratio (IC50 standard peptide / IC50 test peptide) of -0.0005

According to the records, this binder HFVQENYL [MAGE3 249-256 (position 249, 8 amino acids)] displays relative binding ratio (IC50 standard peptide / IC50 test peptide) of -0.0004

According to the records, this binder LYIFATCL [MAGE3 175-182 (position 175, 8 amino acids)] displays relative binding ratio (IC50 standard peptide / IC50 test peptide) of 0.014

According to the records, this binder VFEGREDSI [MAGE3 230-238 (position 230, 9 amino acids)] displays relative binding ratio (IC50 standard peptide / IC50 test peptide) of -0.0004

According to the records, this binder IFSKASSSL [MAGE3 150-158 (position 150, 9 amino acids)] displays relative binding ratio (IC50 standard peptide / IC50 test peptide) of 0.016

The reported numbers originate from patent US20040053822A1.
